Tested on: Human ovarian cancer cell line SKOV3
Settings: 24 h
Below, each of the molecules is paired with its reported Dark toxicity μM (IC10) value.
Supply the numeric figure in µM, leaving out any unit text.

Item Smiles	Value Observed
CCC1=C(C)c2cc3[nH]c(cc4nc(c(C)c5cc(C)c(cc1n2)[nH]5)[C@@H](CCC(=O)N(C)CCCO)[C@@H]4C)c(C)c3CO[C@@H]1O[C@H](CO)[C@@H](O)[C@H](O)[C@H]1O	0.528
CCC1=C(C)c2cc3[nH]c(cc4nc(c(C)c5cc(C)c(cc1n2)[nH]5)[C@@H](CCC(=O)OC)[C@@H]4C)c(C)c3CO[C@@H]1O[C@H](CO)[C@@H](O)[C@H](O)[C@H]1O	0.775
CCC1=C(C)c2cc3[nH]c(cc4nc(c(C)c5cc(C)c(cc1n2)[nH]5)[C@@H](CCC(=O)OC)[C@@H]4C)c(C)c3COC(=O)NCCOC	30.000
CCC1=C(C)c2cc3[nH]c(cc4nc(c(C)c5cc(C)c(cc1n2)[nH]5)[C@@H](CCC(=O)N(CCOCCOCCOC)CCOCCOCCOC)[C@@H]4C)c(C)c3CO[C@@H]1O[C@H](CO)[C@@H](O)[C@H](O)[C@H]1O	0.626

Input line: Look up Dark toxicity μM (IC10) of `CCC1=C(C)c2cc3[nH]c(cc4nc(c(C)c5cc(C)c(cc1n2)[nH]5)[C@@H](CCC(=O)N(C)CCCOCCC[P+](c1ccccc1)(c1ccccc1)c1ccccc1)[C@@H]4C)c(C)c3CO[C@@H]1O[C@H](CO)[C@@H](O)[C@H](O)[C@H]1O` and report it.
Output line: 0.090

---

Tested on: Human ovarian cancer cell line SKOV3
Conditions: 24 h
Readout Type: Dark toxicity μM (IC10) (µM)
Output spec: scalar in µM, unitless text.

The cases that follow already have their Dark toxicity μM (IC10) on record.
Compound	Experimental Target	Uom	Value Observed
CCC1=C(C)c2cc3[nH]c(cc4nc(c(C)c5cc(C)c(cc1n2)[nH]5)[C@@H](CCC(=O)NCCOCCO[C@@H]1O[C@H](CO)[C@@H](O)[C@H](O)[C@H]1O)[C@@H]4C)c(C)c3CO[C@@H]1O[C@H](CO)[C@@H](O)[C@H](O)[C@H]1O	Human ovarian cancer cell line SKOV3	µM	5.929
CCC1=C(C)c2cc3[nH]c(cc4nc(c(C)c5cc(C)c(cc1n2)[nH]5)[C@@H](CCC(=O)OC)[C@@H]4C)c(C)c3COC(=O)NCCCCCC[P+](c1ccccc1)(c1ccccc1)c1ccccc1	Human ovarian cancer cell line SKOV3	µM	6.403
CCC1=C(C)c2cc3[nH]c(cc4nc(c(C)c5cc(C)c(cc1n2)[nH]5)[C@@H](CCC(=O)N(C)CCOCCOCCOC)[C@@H]4C)c(C)c3CO	Human ovarian cancer cell line SKOV3	µM	4.252

Input line: Please give measured Dark toxicity μM (IC10) of the following entry: `CCC1=C(C)c2cc3[nH]c(cc4nc(c(C)c5cc(C)c(cc1n2)[nH]5)[C@@H](CCC(=O)OC)[C@@H]4C)c(C)c3CO[C@@H]1O[C@H](CO)[C@@H](O[C@H]2O[C@H](CO)[C@@H](O)[C@H](O)[C@H]2O)[C@H](O)[C@H]1O`
Output line: 7.442

Input line: Specify measured Dark toxicity μM (IC10) for `CCC1=C(C)c2cc3[nH]c(cc4nc(c(C)c5cc(C)c(cc1n2)[nH]5)[C@@H](CCC(=O)N(C)CCOCCOCCOCCOCCOCCOC)[C@@H]4C)c(C)c3CO` .
Output line: 41.190

Input line: Give the value of Dark toxicity μM (IC10) reported for the following: CCC1=C(C)c2cc3[nH]c(cc4nc(c(C)c5cc(C)c(cc1n2)[nH]5)[C@@H](CCC(=O)OC)[C@@H]4C)c(C)c3C(C)OCCC[n+]1ccc(C)cc1 (stereo partly drawn)
Output line: 4.877

---

System: Human ovarian cancer cell line SKOV3
Conditions: 24 h
Label condition met for high-side Dark toxicity μM (IC10) (at or above 10 µM) and condition not met for low-side Dark toxicity μM (IC10) (below it).

Take a look at these entries with their results.
Molecule	Group
CCC1=C(C)c2cc3[nH]c(cc4nc(c(C)c5cc(C)c(cc1n2)[nH]5)[C@@H](CCC(=O)OC)[C@@H]4C)c(C)c3COC(=O)NCC[P+](c1ccccc1)(c1ccccc1)c1ccccc1	condition not met
CCC1=C(C)c2cc3[nH]c(cc4nc(c(C)c5cc(C)c(cc1n2)[nH]5)[C@@H](CCC(=O)O)[C@@H]4C)c(C)c3C(C)O (stereo partly shown) [Compound 27, phyllochlorin 13-(ethyl-1-alcohol)]	condition met
CCC1=C(C)c2cc3[nH]c(cc4nc(c(C)c5cc(C)c(cc1n2)[nH]5)[C@@H](CCC(=O)N(C)CCCS[C@@H]1O[C@H](CO)[C@@H](O)[C@H](O)[C@H]1O)[C@@H]4C)c(C)c3C(C)O (stereo partly shown)	condition met
CCC1=C(C)c2cc3[nH]c(cc4nc(c(C)c5cc(C)c(cc1n2)[nH]5)[C@@H](CCC(=O)N(C)CCCO[C@@H]1O[C@H](CO)[C@@H](O)[C@H](O)[C@H]1O)[C@@H]4C)c(C)c3CO[C@@H]1O[C@H](CO)[C@@H](O)[C@H](O)[C@H]1O	condition not met
CCC1=C(C)c2cc3[nH]c(cc4nc(c(C)c5cc(C)c(cc1n2)[nH]5)[C@@H](CCC(=O)O)[C@@H]4C)c(C)c3CO [Compound 17, phyllochlorin 13-hydroxymethyl]	condition met
CCC1=C(C)c2cc3[nH]c(cc4nc(c(C)c5cc(C)c(cc1n2)[nH]5)[C@@H](CCC(=O)OC)[C@@H]4C)c(C)c3C(C)OCCC[n+]1ccccc1 (stereo partly shown)	condition not met

Input line: Check this molecule for Dark toxicity μM (IC10) at or above 10 µM: `CCC1=C(C)c2cc3[nH]c(cc4nc(c(C)c5cc(C)c(cc1n2)[nH]5)[C@@H](CCCO[C@@H]1O[C@H](CO)[C@@H](O)[C@H](O)[C@H]1O)[C@@H]4C)c(C)c3CO[C@@H]1O[C@H](CO)[C@@H](O)[C@H](O)[C@H]1O`
Output line: condition met

---

Test system: Human ovarian cancer cell line SKOV3
Test: Inherent cytotoxicity (dark toxicity) in SKOV3 cells (AlamarBlue viability)
Details: SKOV3, 24 h incubation, no light activation
Readout Type: Dark toxicity μM (IC10) (µM)
// units = µM; emit number, no label

# count of solved cases: 3
Molecule	Dark toxicity μM (IC10) (µM)
CCC1=C(C)c2cc3[nH]c(cc4nc(c(C)c5cc(C)c(cc1n2)[nH]5)[C@@H](CCC(=O)NCCOC)[C@@H]4C)c(C)c3COC(=O)NCCC[P+](c1ccccc1)(c1ccccc1)c1ccccc1 [Compound 52]	1.060
CCC1=C(C)c2cc3[nH]c(cc4nc(c(C)c5cc(C)c(cc1n2)[nH]5)[C@@H](CCC(=O)OC)[C@@H]4C)c(C)c3COC(=O)NCCCOCCC[P+](c1ccccc1)(c1ccccc1)c1ccccc1 [Compound 40]	0.6145
CCC1=C(C)c2cc3[nH]c(cc4nc(c(C)c5cc(C)c(cc1n2)[nH]5)[C@@H](CCC(=O)OC)[C@@H]4C)c(C)c3COC(=O)NCCC[P+](c1ccccc1)(c1ccccc1)c1ccccc1 [Compound 45]	3.977

Input line: Read off the recorded Dark toxicity μM (IC10) for C=Cc1c(C)c2cc3nc(c(C)c4[nH]c(cc5nc(cc1[nH]2)C(C)=C5CC)c(C)c4C(=O)O)[C@@H](CCC(=O)O)[C@@H]3C [Chlorin e4 disodium, reference compound]
Output line: 40.23

---

Documented Dark toxicity μM (IC10) across a set of molecules
System: Human ovarian cancer cell line SKOV3
Conditions: 24 h
Output spec: scalar in µM, unitless text.

Molecule	Dark toxicity μM (IC10) [µM]
CCC1=C(C)c2cc3[nH]c(cc4nc(c(C)c5cc(C)c(cc1n2)[nH]5)[C@@H](CCC(=O)OC)[C@@H]4C)c(C)c3C(C)OCCCS[C@@H]1O[C@H](CO)[C@@H](O)[C@H](O)[C@H]1O (some centres unmarked) [Compound 1]	13.500
CCC1=C(C)c2cc3[nH]c(cc4nc(c(C)c5cc(C)c(cc1n2)[nH]5)[C@@H](CCC(=O)N(C)CCCO)[C@@H]4C)c(C)c3C(C)OCCCS[C@@H]1O[C@H](CO)[C@@H](O)[C@H](O)[C@H]1O (some centres unmarked) [Compound 2]	7.640
CCC1=C(C)c2cc3[nH]c(cc4nc(c(C)c5cc(C)c(cc1n2)[nH]5)[C@@H](CCC(=O)OC)[C@@H]4C)c(C)c3C=O [Compound 30, phyllochlorin 13-formyl methyl ester]	45.760

Input line: Fill: Dark toxicity μM (IC10) (Human ovarian cancer cell line SKOV3) for this molecule CCC1=C(C)c2cc3[nH]c(cc4nc(c(C)c5cc(C)c(cc1n2)[nH]5)[C@@H](CCC(=O)OC)[C@@H]4C)c(C)c3C(C)OCCOCC[n+]1ccccc1 (some centres unmarked) [Compound 22]
Output line: 2.228

Input line: Specify Dark toxicity μM (IC10) for CCC1=C(C)c2cc3[nH]c(cc4nc(c(C)c5cc(C)c(cc1n2)[nH]5)[C@@H](CCC(=O)N(C)CCOCCOCCOC)[C@@H]4C)c(C)c3COC(=O)NCCCCCC[P+](c1ccccc1)(c1ccccc1)c1ccccc1 [Compound 43] , system Human ovarian cancer cell line SKOV3.
Output line: 0.5889
